tested on: HOP-92; assay: Growth inhibition of human HOP92 cells incubated for 48 hrs by sulforhodamine B assay; type: functional; details: HOP-92, 48 h
# Lookup of reported GI50 keyed by entry
Output spec: scalar in µM, unitless text.

Use these answered entries as a reference point.
COMPOUND_STRUCTURE_STRING | OBSERVED
COc1cc(OC)cc(-c2ccc(-c3ccc(C(=N)N)c(F)c3)s2)c1 | 0.665
N=C(N)c1ccc(-c2ccc(-c3ccc(Cl)cc3)s2)cc1F | 0.589

Next molecule, please.
Item: `N=C(N)c1ccc(-c2ccc(-c3cc(Cl)cc(Cl)c3)s2)cc1` | System: HOP-92 | GI50: 1.71

---

system: MDA-MB-435; assay: Growth inhibition of human MDA-MB-435 cells incubated for 48 hrs by sulforhodamine B assay; type: functional; details: MDA-MB-435, 48 h
READOUT_LABEL: log10(GI50) (log10 of the value in nM)
Transform log10 | Measure GI50 | Unit nM

Use these answered entries as a reference point.
COMPOUND_STRUCTURE_STRING | STUDY_TARGET | READOUT_LABEL | OBSERVED
N=C(N)c1ccc(-c2ccc(-c3ccccc3)s2)cc1F | MDA-MB-435 | log10(GI50) | 3.34
COc1ccc(-c2ccc(-c3ccc(C(=N)N)c(F)c3)s2)cc1 | MDA-MB-435 | log10(GI50) | 3.26
N=C(N)c1ccc(-c2ccc(-c3ccc(Cl)cc3)s2)cc1F | MDA-MB-435 | log10(GI50) | 2.21
COc1cc(OC)cc(-c2ccc(-c3ccc(C(=N)N)cc3)s2)c1 | MDA-MB-435 | log10(GI50) | 3.23
N=C(N)c1ccc(-c2ccc(-c3cc(Cl)cc(Cl)c3)s2)cc1 | MDA-MB-435 | log10(GI50) | 3.18
N=C(N)c1ccc(-c2ccc(-c3ccc(Cl)cc3)s2)cc1 | MDA-MB-435 | log10(GI50) | 2.24
N=C(N)c1ccc(-c2ccc(-c3ccc(F)cc3)s2)cc1 | MDA-MB-435 | log10(GI50) | 3.22
COc1cc(OC)cc(-c2ccc(-c3ccc(C(=N)N)c(F)c3)s2)c1 | MDA-MB-435 | log10(GI50) | 2.29

Next molecule, please.
Item: `COc1ccc(-c2ccc(-c3ccc(C(=N)N)cc3)s2)cc1` | System: MDA-MB-435 | log10(GI50): 2.97

---

test system: IGROV-1; assay: Growth inhibition of human IGROV1 cells incubated for 48 hrs by sulforhodamine B assay; type: functional; settings: IGROV-1, 48 h
Quick rule for you: GI50 under 2000 nM gets Fulfilled, anything else gets Not fulfilled.

Solved entries:
COMPOUND_STRUCTURE_STRING | ASSIGNED_LABEL
COc1cc(OC)cc(-c2ccc(-c3ccc(C(=N)N)cc3)s2)c1 | Not fulfilled
N=C(N)c1ccc(-c2ccc(-c3ccccc3)s2)cc1F | Not fulfilled
N=C(N)c1ccc(-c2ccc(-c3ccc(F)cc3)s2)cc1 | Fulfilled

**Q:** Quick check: does `N=C(N)c1ccc(-c2ccc(-c3ccc(Cl)cc3)s2)cc1F` have GI50 under 2000 nM?
**A:** Fulfilled

**Q:** Quick check: does `COc1ccc(-c2ccc(-c3ccc(C(=N)N)c(F)c3)s2)cc1` have GI50 under 2000 nM?
**A:** Not fulfilled

**Q:** Quick check: does `COc1cc(OC)cc(-c2ccc(-c3ccc(C(=N)N)c(F)c3)s2)c1` have GI50 under 2000 nM?
**A:** Fulfilled

Where do the numbers come from? From ChEMBL document CHEMBL4007388.
